- Test system: DoHH-2 cells (DLBCL)
- Protocol: Cell viability assay (CellTiter-Glo), DoHH-2
- Assay type: cell-based
- Condition Description: Homo sapiens, 72 h, n = 3
Measured Quantity: IC50 (nM)
Write the answer as a number in nM, unit excluded.

[in] So what's the measured IC50 for this one? C=CC(=O)Nc1cc(C)cc(-n2c(=O)ccc3cnc4ccc(-c5ccc(NS(C)(=O)=O)cc5)cc4c32)c1 [JS25]
[out] 520

###

- System Tested: JAK3 (Homo sapiens, UniProt P52333)
- Construct: host or cells: HEK296T (so in the source)
- Sequence (P52333 1-1124): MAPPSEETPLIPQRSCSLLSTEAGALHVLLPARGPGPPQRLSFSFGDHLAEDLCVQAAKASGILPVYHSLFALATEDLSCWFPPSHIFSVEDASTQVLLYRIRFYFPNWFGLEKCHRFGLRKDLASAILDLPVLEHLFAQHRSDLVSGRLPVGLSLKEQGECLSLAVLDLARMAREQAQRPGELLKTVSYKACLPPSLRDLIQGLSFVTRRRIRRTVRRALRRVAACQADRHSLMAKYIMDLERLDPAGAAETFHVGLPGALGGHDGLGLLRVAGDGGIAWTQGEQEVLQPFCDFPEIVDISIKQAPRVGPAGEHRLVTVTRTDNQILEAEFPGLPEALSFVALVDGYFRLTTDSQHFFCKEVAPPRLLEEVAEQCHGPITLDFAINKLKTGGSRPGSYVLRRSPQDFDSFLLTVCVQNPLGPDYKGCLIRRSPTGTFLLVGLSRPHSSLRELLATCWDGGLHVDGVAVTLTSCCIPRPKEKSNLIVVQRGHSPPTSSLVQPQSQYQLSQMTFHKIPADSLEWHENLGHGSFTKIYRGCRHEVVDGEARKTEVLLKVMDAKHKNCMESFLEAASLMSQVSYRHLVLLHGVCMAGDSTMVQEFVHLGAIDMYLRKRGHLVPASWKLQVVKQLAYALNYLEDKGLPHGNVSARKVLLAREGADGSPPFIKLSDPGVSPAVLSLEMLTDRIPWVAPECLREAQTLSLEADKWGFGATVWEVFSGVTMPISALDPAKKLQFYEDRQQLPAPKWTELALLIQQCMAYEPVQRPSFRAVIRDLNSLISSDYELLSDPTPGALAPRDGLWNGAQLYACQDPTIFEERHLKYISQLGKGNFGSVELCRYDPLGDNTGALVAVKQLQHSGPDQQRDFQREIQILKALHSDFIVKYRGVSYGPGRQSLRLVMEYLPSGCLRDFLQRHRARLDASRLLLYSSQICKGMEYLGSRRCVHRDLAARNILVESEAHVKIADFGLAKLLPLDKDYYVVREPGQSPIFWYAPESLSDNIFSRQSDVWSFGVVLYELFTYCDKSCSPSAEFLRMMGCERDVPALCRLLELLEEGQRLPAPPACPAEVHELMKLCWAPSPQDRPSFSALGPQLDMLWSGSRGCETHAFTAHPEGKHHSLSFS
- Protocol: NanoBRET in-cell target engagement, JAK3
- Type: binding
- Condition Description: HEK296T cells, 1 h incubation, average of duplicates
Measured Quantity: IC50

[in] So what's the measured IC50 for this one? `C=CC(=O)Nc1cc(C)cc(-n2c(=O)ccc3cnc4ccc(-c5ccc(NS(C)(=O)=O)cc5)cc4c32)c1`
[out] > 3 µM

###

- Tested on: HL-60 cells (APML)
- Protocol: Cell viability assay (CellTiter-Glo), HL-60
- Assay type: cell-based
- Condition Description: Homo sapiens, 72 h, n = 3
Measured Quantity: IC50
State the value with its unit after it.

| Compound | Measurement |
| --- | --- |
| C=CC(=O)Nc1cc(C)cc(-n2c(=O)ccc3cnc4ccc(-c5ccc(NS(C)(=O)=O)cc5)cc4c32)c1 | 1.95 µM |

As a next step, examine the compound that follows.
[in] Identify the measured IC50 of C=CC(=O)N1CCC[C@@H](n2nc(-c3ccc(Oc4ccccc4)cc3)c3c(N)ncnc32)C1 [ibrutinib, reference compound] for HL-60 cells (APML).
[out] 7.74 µM

###

- System Tested: EGFR (Homo sapiens, UniProt P00533)
- Construct: host or cells: HEK296T (so in the source)
- Sequence (P00533 25-1210): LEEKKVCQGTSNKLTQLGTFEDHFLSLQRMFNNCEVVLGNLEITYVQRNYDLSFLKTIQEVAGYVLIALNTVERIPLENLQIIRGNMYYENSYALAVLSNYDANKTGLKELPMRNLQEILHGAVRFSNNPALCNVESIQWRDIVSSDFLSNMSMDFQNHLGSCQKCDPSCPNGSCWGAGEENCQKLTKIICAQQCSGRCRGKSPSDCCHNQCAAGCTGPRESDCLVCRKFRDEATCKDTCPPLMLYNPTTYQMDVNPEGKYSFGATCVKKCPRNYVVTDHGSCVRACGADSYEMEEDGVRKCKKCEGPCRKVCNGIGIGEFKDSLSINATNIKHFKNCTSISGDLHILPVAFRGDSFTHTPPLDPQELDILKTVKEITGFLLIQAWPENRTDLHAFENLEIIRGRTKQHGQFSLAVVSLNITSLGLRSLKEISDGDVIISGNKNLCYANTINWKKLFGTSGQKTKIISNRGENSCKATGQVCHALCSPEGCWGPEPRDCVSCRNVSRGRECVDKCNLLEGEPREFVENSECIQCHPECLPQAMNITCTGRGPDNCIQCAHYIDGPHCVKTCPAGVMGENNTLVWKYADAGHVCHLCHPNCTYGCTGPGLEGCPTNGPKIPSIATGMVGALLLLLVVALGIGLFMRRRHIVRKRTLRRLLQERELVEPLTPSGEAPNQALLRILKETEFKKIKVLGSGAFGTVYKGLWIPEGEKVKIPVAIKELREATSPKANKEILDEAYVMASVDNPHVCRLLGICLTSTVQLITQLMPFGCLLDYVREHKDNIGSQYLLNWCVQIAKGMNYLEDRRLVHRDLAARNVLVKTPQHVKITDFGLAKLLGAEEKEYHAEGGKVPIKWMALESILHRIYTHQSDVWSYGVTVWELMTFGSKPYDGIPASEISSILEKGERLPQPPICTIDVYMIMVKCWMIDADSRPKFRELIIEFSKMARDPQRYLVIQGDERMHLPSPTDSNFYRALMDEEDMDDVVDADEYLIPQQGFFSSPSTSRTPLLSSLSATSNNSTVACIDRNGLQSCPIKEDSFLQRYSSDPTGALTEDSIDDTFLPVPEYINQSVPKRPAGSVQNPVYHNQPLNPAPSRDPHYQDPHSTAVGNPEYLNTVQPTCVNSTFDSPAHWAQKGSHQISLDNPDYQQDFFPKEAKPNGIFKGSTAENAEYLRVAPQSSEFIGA
- Protocol: NanoBRET in-cell target engagement, EGFR
- Type: binding
- Condition Description: HEK296T cells, 1 h incubation, average of duplicates
Measured Quantity: IC50

[in] So what's the measured IC50 for this one? `C=CC(=O)Nc1cc(C)cc(-n2c(=O)ccc3cnc4ccc(-c5ccc(NS(C)(=O)=O)cc5)cc4c32)c1`
[out] > 3 µM

###

- System Tested: ITK (Homo sapiens, UniProt Q08881)
- Construct: host or cells: HEK296T (so in the source)
- Sequence (Q08881 1-620): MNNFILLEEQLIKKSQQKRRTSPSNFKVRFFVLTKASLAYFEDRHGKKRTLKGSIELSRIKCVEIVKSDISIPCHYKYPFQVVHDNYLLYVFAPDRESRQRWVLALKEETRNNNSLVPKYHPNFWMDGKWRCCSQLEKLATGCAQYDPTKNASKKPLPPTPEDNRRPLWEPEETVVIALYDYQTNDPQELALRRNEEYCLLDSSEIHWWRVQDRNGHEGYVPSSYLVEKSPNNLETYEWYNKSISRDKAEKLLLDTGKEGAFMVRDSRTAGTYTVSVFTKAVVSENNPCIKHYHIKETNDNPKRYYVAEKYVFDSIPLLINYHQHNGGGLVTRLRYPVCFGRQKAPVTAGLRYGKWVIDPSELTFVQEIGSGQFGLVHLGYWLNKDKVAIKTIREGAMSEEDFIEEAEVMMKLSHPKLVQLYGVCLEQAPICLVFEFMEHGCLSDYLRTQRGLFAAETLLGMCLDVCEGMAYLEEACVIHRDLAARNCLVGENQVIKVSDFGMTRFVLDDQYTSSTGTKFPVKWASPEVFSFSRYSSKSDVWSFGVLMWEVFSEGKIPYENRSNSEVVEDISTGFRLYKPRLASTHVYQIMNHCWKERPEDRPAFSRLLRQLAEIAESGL
- Protocol: NanoBRET in-cell target engagement, ITK
- Format: binding
- Condition Description: HEK296T cells, 1 h incubation, average of duplicates
Measured Quantity: IC50 (nM)
Write the answer as a number in nM, unit excluded.

[in] So what's the measured IC50 for this one? C=CC(=O)Nc1cc(C)cc(-n2c(=O)ccc3cnc4ccc(-c5ccc(NS(C)(=O)=O)cc5)cc4c32)c1 [JS25]
[out] 440

###

- System Tested: BTK (Homo sapiens)
- Sequence (Q06187 whole entry): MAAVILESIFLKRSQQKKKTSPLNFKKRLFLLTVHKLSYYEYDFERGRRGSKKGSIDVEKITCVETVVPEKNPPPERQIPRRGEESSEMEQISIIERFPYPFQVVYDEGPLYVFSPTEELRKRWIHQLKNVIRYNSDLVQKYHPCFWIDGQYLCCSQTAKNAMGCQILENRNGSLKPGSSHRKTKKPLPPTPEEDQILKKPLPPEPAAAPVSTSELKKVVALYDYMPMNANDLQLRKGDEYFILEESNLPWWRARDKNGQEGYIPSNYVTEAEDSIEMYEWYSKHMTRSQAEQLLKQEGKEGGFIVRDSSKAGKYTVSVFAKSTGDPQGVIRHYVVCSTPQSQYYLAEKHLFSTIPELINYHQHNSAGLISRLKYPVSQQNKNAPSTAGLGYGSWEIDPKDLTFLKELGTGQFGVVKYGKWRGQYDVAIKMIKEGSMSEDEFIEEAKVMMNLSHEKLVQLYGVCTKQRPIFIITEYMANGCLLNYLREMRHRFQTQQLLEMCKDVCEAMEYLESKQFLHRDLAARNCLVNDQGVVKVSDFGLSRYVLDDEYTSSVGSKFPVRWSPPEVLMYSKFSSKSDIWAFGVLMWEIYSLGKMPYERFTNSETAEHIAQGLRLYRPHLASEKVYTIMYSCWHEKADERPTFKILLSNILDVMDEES
Measured Quantity: pKi
Would you please state pKi, meaning minus log10 of the concentration in mol/L, as a bare number?

[in] Identify the measured pKi of `C=CC(=O)Nc1cc(C)cc(-n2c(=O)ccc3cnc4ccc(-c5ccc(NS(C)(=O)=O)cc5)cc4c32)c1` for BTK (Homo sapiens).
[out] 9.11

###

- System Tested: BLK (Homo sapiens)
- Protocol: NanoBRET in-cell target engagement, BLK
- Assay type: binding
- Parameters: host or cells: HEK296T (so in the source)
- Condition Description: NanoBRET value as given in Table S3; read-out: IC50, BLK
Measured Quantity: IC50

[in] Identify the measured IC50 of `C=CC(=O)Nc1cc(C)cc(-n2c(=O)ccc3cnc4ccc(-c5ccc(NS(C)(=O)=O)cc5)cc4c32)c1` for BLK (Homo sapiens).
[out] ~3 µM

###

- System Tested: BLK (Homo sapiens, UniProt P51451)
- Sequence (P51451 whole entry): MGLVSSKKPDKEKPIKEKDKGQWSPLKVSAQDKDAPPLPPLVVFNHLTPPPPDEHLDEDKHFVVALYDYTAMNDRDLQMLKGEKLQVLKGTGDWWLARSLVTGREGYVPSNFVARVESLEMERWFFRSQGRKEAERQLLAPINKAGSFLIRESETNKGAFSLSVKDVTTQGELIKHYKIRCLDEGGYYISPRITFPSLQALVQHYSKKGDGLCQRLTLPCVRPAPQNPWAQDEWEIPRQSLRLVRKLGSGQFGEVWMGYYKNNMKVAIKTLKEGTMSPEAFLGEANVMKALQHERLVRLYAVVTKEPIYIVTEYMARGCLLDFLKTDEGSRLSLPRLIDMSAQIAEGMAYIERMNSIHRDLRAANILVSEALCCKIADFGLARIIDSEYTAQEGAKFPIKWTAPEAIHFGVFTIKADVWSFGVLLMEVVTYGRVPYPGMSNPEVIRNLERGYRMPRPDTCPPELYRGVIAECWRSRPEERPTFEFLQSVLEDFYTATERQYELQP
- Protocol: NanoBRET in-cell target engagement, BLK
- Format: binding
- Set-up: host or cells: HEK296T (so in the source)
- Condition Description: HEK296T cells, 1 h incubation, average of duplicates; read-out: IC50 (M), BLK
Measured Quantity: IC50 (M)
Write the answer as a number in M, unit excluded.

[in] So what's the measured IC50 for this one? `C=CC(=O)Nc1cc(C)cc(-n2c(=O)ccc3cnc4ccc(-c5ccc(NS(C)(=O)=O)cc5)cc4c32)c1`
[out] 2.6e-06

###

- System Tested: BTK (Homo sapiens)
- Protocol: NanoBRET in-cell target engagement, BTK
- Type: binding
- Set-up: purchased Promega Corporation V2941
- Condition Description: HEK296T cells, 1 h incubation, average of duplicates; read-out: IC50 (M), BTK
Measured Quantity: IC50 (M)
Write the answer as a number in M, unit excluded.

[in] Identify the measured IC50 of C=CC(=O)Nc1cc(C)cc(-n2c(=O)ccc3cnc4ccc(-c5ccc(NS(C)(=O)=O)cc5)cc4c32)c1 [JS25] for BTK (Homo sapiens).
[out] 2.85e-08

###

- System Tested: BMX (Homo sapiens)
- Construct: host or cells: HEK296T (so in the source)
- Sequence (P51813 1-675): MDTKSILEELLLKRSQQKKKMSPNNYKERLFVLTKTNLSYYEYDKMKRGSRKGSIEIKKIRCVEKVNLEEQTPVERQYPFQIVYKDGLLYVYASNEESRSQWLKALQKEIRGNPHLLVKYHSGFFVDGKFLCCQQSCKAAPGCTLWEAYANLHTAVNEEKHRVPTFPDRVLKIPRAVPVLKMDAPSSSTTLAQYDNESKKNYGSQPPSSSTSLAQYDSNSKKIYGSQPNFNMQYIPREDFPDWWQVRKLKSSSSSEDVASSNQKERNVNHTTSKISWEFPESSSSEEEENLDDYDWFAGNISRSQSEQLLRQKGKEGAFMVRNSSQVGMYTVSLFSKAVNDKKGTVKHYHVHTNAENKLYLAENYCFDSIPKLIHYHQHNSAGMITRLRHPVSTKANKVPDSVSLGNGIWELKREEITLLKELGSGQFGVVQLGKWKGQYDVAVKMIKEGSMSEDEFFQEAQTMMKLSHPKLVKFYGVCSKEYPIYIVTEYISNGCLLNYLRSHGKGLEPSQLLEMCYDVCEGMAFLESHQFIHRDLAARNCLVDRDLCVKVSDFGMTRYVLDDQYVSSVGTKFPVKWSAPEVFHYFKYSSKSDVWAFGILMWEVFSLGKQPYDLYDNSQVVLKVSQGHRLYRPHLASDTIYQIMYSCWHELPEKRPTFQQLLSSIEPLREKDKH
- Protocol: NanoBRET in-cell target engagement, BMX
- Format: binding
- Condition Description: HEK296T cells, 1 h incubation, average of duplicates
Measured Quantity: IC50 (nM)
Write the answer as a number in nM, unit excluded.

[in] Identify the measured IC50 of `C=CC(=O)Nc1cc(C)cc(-n2c(=O)ccc3cnc4ccc(-c5ccc(NS(C)(=O)=O)cc5)cc4c32)c1` for BMX (Homo sapiens).
[out] 49
